test: Metabolic stability in human hepatic microsome; type: in vitro ADME; conditions: microsomes, pH 7.4; human hepatic microsome, NADPH(+); read-out: CL NADPH(+)
Positions of bridges follow the written chain, without caps; N, C: chain ends. Non-standard residues stand in square brackets, D forms with d. Residues, ends and D or L forms follow the SMILES beside them. *: point of attachment. NMeF = CN[C@@H](Cc1ccccc1)C(=O)O; NMeV = CN[C@H](C(=O)O)C(C)C; NMeA = CN[C@@H](C)C(=O)O; Piperidide = C1CCN(*)CC1; dNMeA = CN[C@H](C)C(=O)O
PARAMETER: microsomal CLint at 1 uM (µL/min/mg)
Form entry: value (µL/min/mg) — number only.

# return recorded microsomal CLint at 1 uM for input CC(C)[C@@H]1NC(=O)[C@H](C)N(C)C(=O)CNC(=O)[C@H]([C@@H](C)O)NC(=O)[C@H](C(C)C)N(C)C(=O)[C@H](C)NC(=O)[C@@H](C)N(C)C(=O)C[C@@H](C(=O)N(C)[C@@H](Cc2ccccc2)C(=O)N(C)[C@@H](Cc2ccccc2)C(=O)N[C@@H](C)C(=O)N2CCCCC2)NC(=O)[C@H](Cc2ccccc2)N(C)C(=O)[C@H](C)N(C)C1=O [DP-505] ([dNMeA]A[NMeV]TG[NMeA]V[NMeA][NMeF]D[NMeF][NMeF]A-Piperidide; lactam N-10)
18

###

assay: PAMPA (parallel artificial membrane permeability assay); format: in vitro ADME; conditions: PAMPA; membrane permeation rate (Pe); 50 mM MOPSO buffer pH 6.5 with 5.0% glycocholic acid, 37° C., 18 hours; read-out: iPAMPA Pe
Starred links: 1 amine or outer side, 2 acyl side, 3 side chain; linkers in the order of their positions; H or OH if unused. Positions of bridges follow the written chain, without caps; N, C: chain ends. Non-standard residues stand in square brackets, D forms with d. Residues, ends and D or L forms follow the SMILES beside them. *: point of attachment. Phe(3-(CH2)4CO) = O=C([C@H](Cc1cccc(CCCCC(=O)[*:3])c1)N[*:1])[*:2]; NMePhe(3-Cl) = CN[C@@H](Cc1cccc(Cl)c1)C(=O)O; NMeF = CN[C@@H](Cc1ccccc1)C(=O)O; NMeGABA = CN(CCCC(=O)[*:2])[*:1]; NMeI = CC[C@H](C)[C@H](NC)C(=O)O; NMeL = CN[C@@H](CC(C)C)C(=O)O; NMeV = CN[C@H](C(=O)O)C(C)C; NMeA = CN[C@@H](C)C(=O)O; Piperidide = C1CCN(*)CC1; dNMeA = CN[C@H](C)C(=O)O; β3hA = C[C@H](N)CC(=O)O; Sar = CNCC(=O)O; tBu = CC(C)(C)*
In this scheme, each record receives a class according to its Papp at 18 hours, 50 µM; the ranges are class A = under 10 ×10⁻⁶ cm/s, class B = from 10 ×10⁻⁶ cm/s up to 30 ×10⁻⁶ cm/s, class C = 30 ×10⁻⁶ cm/s and over

• CC(C)C[C@H]1C(=O)N[C@@H](COC(C)(C)C)C(=O)N[C@@H](C)CC(=O)N[C@H](C(C)C)C(=O)N(C)[C@@H](Cc2cccc(Cl)c2)C(=O)N(C)[C@@H](C)C(=O)N(C)[C@@H](CC(C)C)C(=O)N[C@@H]([C@@H](C)O)C(=O)N(C)[C@@H](C)C(=O)N1C [DP-801] (cyclo([NMeA][NMeL]S(tBu)[β3hA][dV][NMePhe(3-Cl)][NMeA][NMeL]T)) = class C

Hi, small favor: classify CC[C@H](C)[C@H]1C(=O)N[C@@H](Cc2ccccc2)C(=O)N(C)[C@@H](Cc2ccccc2)C(=O)N[C@@H]([C@@H](C)O)C(=O)N2CCC[C@H]2C(=O)N[C@@H](CC(C)C)C(=O)N[C@H](C(=O)N2CCCCC2)Cc2cccc(c2)CCCCC(=O)N[C@@H](CC(C)C)C(=O)N(C)[C@@H](CC(C)C)C(=O)N[C@@H](C)C(=O)N1C [DP-897] (L[NMeL]A[NMeI]F[NMeF]TPL[Phe(3-(CH2)4CO)]-Piperidide; lactam N-10) by its Papp at 18 hours, 50 µM when you get a moment.
class A

Hi, small favor: classify CC(C)C[C@@H]1NC(=O)C[C@@H](C(=O)N2CCCCC2)NC(=O)[C@H](COC(C)(C)C)NC(=O)[C@H](CC(C)C)N(C)C(=O)CN(C)C(=O)[C@H]([C@@H](C)O)NC(=O)[C@H](CC(C)C)N(C)C(=O)[C@H](Cc2ccccc2)N(C)C1=O [DP-692] (L[NMeF][NMeL]T[Sar][NMeL]S(tBu)D-Piperidide; lactam N-8) by its Papp at 18 hours, 50 µM when you get a moment.
class B

Hi, small favor: classify CC(C)C[C@H]1C(=O)N[C@H](C(=O)N2CCCCC2)CC(=O)N(C)[C@H](C)C(=O)N(C)[C@@H](Cc2ccccc2)C(=O)N(C)[C@@H](CC(C)C)C(=O)N[C@@H]([C@@H](C)O)C(=O)N(C)[C@@H](CC(C)C)C(=O)N[C@@H](COC(C)(C)C)C(=O)N1C [DP-683] ([dNMeA][NMeF][NMeL]T[NMeL]S(tBu)[NMeL]D-Piperidide; lactam N-8) by its Papp at 18 hours, 50 µM when you get a moment.
class C

Hi, small favor: classify CC[C@H](C)[C@H]1C(=O)N(C)[C@@H](C(C)C)C(=O)N(C)[C@@H](CC(C)C)C(=O)N[C@@H]([C@@H](C)O)C(=O)N[C@H](C(=O)N2CCCCC2)CC(=O)N(C)CCCC(=O)N[C@@H](Cc2ccccc2)C(=O)N(C)[C@@H](CC(C)C)C(=O)N(C)[C@@H](C)C(=O)N(C)[C@@H](Cc2ccccc2)C(=O)N[C@@H](C)C(=O)N1C [DP-250] ([NMeGABA]F[NMeL][NMeA][NMeF]A[NMeI][NMeV][NMeL]TD-Piperidide; lactam N-11) by its Papp at 18 hours, 50 µM when you get a moment.
class B

Hi, small favor: classify CC(C)C[C@H]1C(=O)N(C)[C@@H](C(C)C)C(=O)N[C@@H](Cc2ccccc2)C(=O)N[C@H](C(=O)N2CCCCC2)CC(=O)N(C)CCCC(=O)N[C@@H](COC(C)(C)C)C(=O)N(C)[C@@H](CC(C)C)C(=O)N(C)[C@@H](Cc2ccccc2)C(=O)N[C@@H]([C@@H](C)O)C(=O)NCC(=O)N1C [DP-277] ([NMeGABA]S(tBu)[NMeL][NMeF]TG[NMeL][NMeV]FD-Piperidide; lactam N-10) by its Papp at 18 hours, 50 µM when you get a moment.
class C

Hi, small favor: classify CC(C)C[C@H]1C(=O)N[C@H](C(=O)N2CCCCC2)CC(=O)N(C)[C@H](C)C(=O)N(C)[C@@H](Cc2ccccc2)C(=O)N(C)[C@@H](CC(C)C)C(=O)N[C@@H]([C@@H](C)O)C(=O)N(C)[C@@H](C)C(=O)N[C@@H](COC(C)(C)C)C(=O)N1C [DP-682] ([dNMeA][NMeF][NMeL]T[NMeA]S(tBu)[NMeL]D-Piperidide; lactam N-8) by its Papp at 18 hours, 50 µM when you get a moment.
class B

###

assay: in vivo; conditions: male, C57BL/6J, mouse, iv, 20 mg/kg
Positions of bridges follow the written chain, without caps; N, C: chain ends. Non-standard residues stand in square brackets, D forms with d. Residues, ends and D or L forms follow the SMILES beside them. *: point of attachment. NMeF = CN[C@@H](Cc1ccccc1)C(=O)O; NMeI = CC[C@H](C)[C@H](NC)C(=O)O; NMeL = CN[C@@H](CC(C)C)C(=O)O; NMeV = CN[C@H](C(=O)O)C(C)C; NMeA = CN[C@@H](C)C(=O)O; Piperidide = C1CCN(*)CC1; Sar = CNCC(=O)O; tBu = CC(C)(C)*
PARAMETER: clearance (mL/min/kg)
Form entry: value (mL/min/kg) — number only.

Worked examples follow.
* CC[C@H](C)[C@H]1C(=O)N[C@@H](COC(C)(C)C)C(=O)N(C)[C@@H](Cc2ccccc2)C(=O)N(C)[C@@H](C(C)C)C(=O)N[C@H](C(=O)N2CCCCC2)CC(=O)N(C)[C@@H](C)C(=O)N(C)[C@@H](Cc2ccccc2)C(=O)N[C@@H](CC(C)C)C(=O)N(C)[C@@H](CC(C)C)C(=O)N[C@@H]([C@@H](C)O)C(=O)N(C)CC(=O)N1C [DP-47] ([NMeA][NMeF]L[NMeL]T[Sar][NMeI]S(tBu)[NMeF][NMeV]D-Piperidide; lactam N-11) | 1.66
* CC[C@H](C)[C@H]1C(=O)N[C@@H]([C@@H](C)O)C(=O)N(C)CC(=O)N(C)[C@@H](CC(C)C)C(=O)N[C@H](C(=O)N2CCCCC2)CC(=O)N(C)[C@@H](C)C(=O)N[C@@H](CC(C)C)C(=O)N(C)[C@@H](CC(C)C)C(=O)N(C)[C@@H](Cc2ccccc2)C(=O)N[C@@H](C)C(=O)N(C)[C@@H](Cc2ccccc2)C(=O)N1C [DP-101] ([NMeA]L[NMeL][NMeF]A[NMeF][NMeI]T[Sar][NMeL]D-Piperidide; lactam N-11) | 4.01

# return recorded clearance for input CC(C)C[C@H]1C(=O)N2CCC[C@H]2C(=O)N(C)[C@@H](CC(C)C)C(=O)N[C@@H](C)C(=O)N(C)[C@@H](C(C)C)C(=O)N[C@H](C(=O)N2CCCCC2)CC(=O)N(C)[C@@H](C)C(=O)N[C@@H]([C@@H](C)O)C(=O)N(C)CC(=O)N(C)[C@@H](Cc2ccccc2)C(=O)N(C)[C@@H](Cc2ccccc2)C(=O)N1C [DP-67] ([NMeA]T[Sar][NMeF][NMeF][NMeL]P[NMeL]A[NMeV]D-Piperidide; lactam N-11)
4.74
